Each entry below lists one item and its recorded concentration at 4380 h value.
- METHOD SUMMARY: HPLC of tamoxifen and metabolites in MCF-7 mouse tumors (Example 3)
- EXPERIMENTAL CONDITIONS: mouse, mcf-7 tumor, 500 ug/day

| SUBSTANCE SMILES | VALUE UNIT | concentration at 4380 h |
| --- | --- | --- |
| CCC(=C(c1ccccc1)c1ccc(OCCNC)cc1)c1ccccc1 | ng/g | 135 |
| CCC(=C(c1ccccc1)c1ccc(O)cc1)c1ccccc1 | ng/g | 22 |

---

- Test system: human breast tumors
- METHOD SUMMARY: HPLC and mass spectrometry of tamoxifen metabolites in human breast tumors failing tamoxifen (Example 3)
- Assay type: in vivo
- EXPERIMENTAL CONDITIONS: HPLC / EI-MS

| MOLECULE | TESTED ON | Presence in human breast cancer tissue |
| --- | --- | --- |
| CCC(=C(c1ccccc1)c1ccc(OCCN)cc1)c1ccccc1 [metabolite Z, didesmethyltamoxifen] | human breast tumors | Peaks were also noted |
| CCC(=C(c1ccc(O)cc1)c1ccc(OCCNC)cc1)c1ccccc1 [metabolite Bx] | human breast tumors | Peaks were also noted |
